Source listed as PubChem BioAssay.

assay: modulation of acetylcholine-evoked membrane potential, parental HEK293, confirmation, counter-screen for TRPC6 modulator project, cell-based, second counter-screen, membrane potential dye (AID 488926); conditions: parental HEK293, membrane potential dye fluorescence, at 10 µM, after compound, maximal acetylcholine stimulation
Some of the results follow. Active and inactive are the calls of the source.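 Rule for the calls: active = membrane potential signal drops by more than 5 SD from the mean control signal, in both duplicate plates; inactive = the rest.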
Classes used: active, inactive

# compound, class
records = [
    ("CCN1CCN(c2nc(Nc3cc(OC)ccc3OC)nc(Nc3cc(OC)ccc3OC)n2)CC1", "inactive"),
    ("CC(C)(C)Nc1nc(-c2ccccn2)nc2ccccc12", "active"),
    ("N=c1c2c3c(sc2ncn1CCCN1CCOCC1)CCCCC3", "inactive"),
    ("COc1ccc(C(=O)C2CCCN(Cc3cccn3-c3ccccn3)C2)c(C)c1 (stereo unspecified)", "active"),
    ("CCOc1ccc(/C(O)=C2/C(=O)C(=O)N(Cc3cccnc3)C2c2ccc(N(C)C)cc2)c(C)c1 (stereo unspecified)", "inactive"),
    ("Cc1cccn2c(=O)c3cc(C#N)c(=O)n(CCCN4CCOCC4)c3nc12", "active"),
    ("Cc1nn(Cc2ccc(C(=O)N3N=C(C(F)F)CC3(O)C(F)F)cc2)c(C)c1[N+](=O)[O-] (stereo unspecified)", "inactive"),
    ("CCCCN(C)CCCNC(=O)c1cc(-c2cccs2)nc2ccccc12", "inactive"),
    ("O=C(c1ccc(-n2cnnn2)cc1)N1CCN(C(c2ccccc2)c2ccccc2)CC1", "active"),
    ("O=C(C1CCN(S(=O)(=O)Cc2ccccc2)CC1)N1CCCc2ccccc21", "inactive"),
    ("COc1cc2c(cc1OC)C(/C=C/c1ccco1)=NCC2", "active"),
    ("COc1ccc(-c2nnc(NC(=O)CS(=O)(=O)c3ccc(Cl)cc3)o2)c(OC)c1", "inactive"),
    ("Nc1ccc(C(=O)N2CCN(S(=O)(=O)c3ccc(Cl)cc3)CC2)cc1[N+](=O)[O-]", "inactive"),
    ("Cc1nc(N=C(N)N)nc2c(C)cccc12", "active"),
    ("Cc1ccc(NC(=S)N(CCCN2CCCC2)Cc2cccn2Cc2ccc(Cl)cc2)cc1", "inactive"),
    ("Cn1c(/C(C#N)=C2/CCCCCN2)nc2ccccc21", "inactive"),
    ("c1ccc(C2CNCc3c2ccc2ccccc32)cc1 (stereo unspecified)", "inactive"),
    ("O=C(NC1C2CC3CC(C2)CC1C3)c1ccc(N2CCNCC2)c([N+](=O)[O-])c1 (stereo unspecified)", "inactive"),
    ("CC(C)(C)n1nnnc1C(c1ccc2ncccc2c1)N1CCSCC1 (stereo unspecified)", "inactive"),
    ("CC(=O)c1cc(NC(=O)c2ccccc2)c(=O)oc1/C=C/N(C)C", "active"),
    ("CCOc1nc(NCCN2CCOCC2)nc(Nc2ccc(C)cc2)n1", "inactive"),
]

* * *

target: Short transient receptor potential channel 4 (Mus musculus); assay: inhibitors of mouse TRPC4 channel, confirmation, cell-based, Fluo4, HEK293 TRPC4beta/mu-opioid (AID 2636); settings: DAMGO, Fluo4 calcium flux, at 10 µM
Calls of active or inactive are those of the source.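 Rule for the calls: active = calcium signal cut by more than 3 SD below the full-agonist control yet still positive, in both repeats and the earlier primary screen; inactive = the rest.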
Classes used: 1 (yes) for active, 0 (no) for inactive

# compound, class
rows = [
    ("CCCCC(=O)NNC(=S)NC(=O)C(c1ccccc1)c1ccccc1", "0 (no)"),
    ("COc1ccc(C(CNC(=O)c2cccc(NS(=O)(=O)c3ccc(C)c(F)c3)c2)N(C)C)cc1 (stereo not given)", "0 (no)"),
    ("CN(C)C(CNC(=S)Nc1ccc(F)cc1)c1cccnc1 (stereo not given)", "0 (no)"),
    ("COc1ccc(C(CNC(=O)C(C)c2ccc3cc(OC)ccc3c2)N(C)C)cc1 (stereo not given)", "0 (no)"),
    ("CCN(CC)CCSc1nc2ccc(OC)cc2[nH]1", "0 (no)"),
    ("CN(C)C(CNC(=S)Nc1cccc(Cl)c1)c1ccccc1 (stereo not given)", "0 (no)"),
    ("CN(C)C(CNC(=O)CCc1c[nH]c2ccccc12)c1ccccc1 (stereo not given)", "0 (no)"),
    ("CCCOc1ccc(C(=O)NNC(=S)NC(=O)c2cccs2)cc1", "0 (no)"),
    ("CCc1ccc(C(CNc2nc(C(F)(F)F)nc3ccccc23)N(C)C)cc1 (stereo not given)", "0 (no)"),
    ("CCCCC(=O)NNC(=S)NC(=O)c1ccc(C)cc1", "0 (no)"),
    ("O=C(COc1ccccc1)NNC(=S)NC(=O)c1ccc(Cl)cc1Cl", "0 (no)"),
    ("CCOC(=O)C1(CCc2ccccc2)CCN(Cc2c(O)cccc2OC)CC1", "0 (no)"),
    ("Cc1occc1C(=O)NNC(=S)NC(=O)COc1ccc(Cl)cc1Cl", "0 (no)"),
    ("Cc1cccc(C(=O)NC(=S)NNC(=O)c2ccccc2Cl)c1", "0 (no)"),
    ("Cc1nc(/N=C(\\N)NC(=O)NC2CCCCC2)nc2ccccc12", "0 (no)"),
    ("Cc1cc(-c2ccc(C)c(S(=O)(=O)NCCCN(Cc3ccccc3)C(C)C)c2)on1", "0 (no)"),
    ("COc1ccc(C(CNC(=O)c2cccc3cccnc23)N(C)C)cc1 (stereo not given)", "0 (no)"),
    ("Cc1cc(Cl)cc(C)c1OCCCCn1ccnc1", "0 (no)"),
    ("CCNC(=S)N1CCC(C(O)(c2ccccc2)c2ccccc2)CC1", "1 (yes)"),
    ("Cc1ccc(C)c(S(=O)(=O)N2CCN(C(=O)CCc3nc4ccccc4c(=O)[nH]3)CC2)c1", "0 (no)"),
    ("CN(C)C(CNC(=S)Nc1cccc(Cl)c1)c1cccnc1 (stereo not given)", "0 (no)"),
    ("CN(C)CCCN(C(=O)c1ccc(S(=O)(=O)N(C)C)cc1)c1nc2ccc(F)cc2s1", "0 (no)"),
    ("NCCCn1c(C(=O)c2cc(Cl)c(N)c(Cl)c2)c2ccccc2[n+]1[O-]", "1 (yes)"),
    ("COC(=O)C1=NN(C(=O)c2cccc(Br)c2)C(O)(c2ccc(Cl)cc2)C1 (stereo not given)", "0 (no)"),
    ("COc1cccc(CC2(CO)CCCN(Cc3ccccc3-c3ccco3)C2)c1 (stereo not given)", "0 (no)"),
    ("CC(Oc1ccc(Cl)cc1)C(=O)NNC(=S)NC(=O)c1ccco1 (stereo not given)", "0 (no)"),
    ("CCN1CCN(c2c(S(=O)(=O)c3ccc(C)c(C)c3)cnc3ccc(F)cc23)CC1", "0 (no)"),
    ("Cc1sc2ncnc(NCC(C)(C)N3CCOCC3)c2c1C", "0 (no)"),
    ("O=C(C1CCCN(Cc2ccccc2F)C1)N1CCc2ccccc2C1 (stereo not given)", "0 (no)"),
    ("OCCNCCSc1ccc(Cl)cc1", "0 (no)"),
    ("CCOC(=O)C1(CC2CCCCO2)CCN(Cc2c(C)cc(C)cc2-n2cccn2)CC1 (stereo not given)", "0 (no)"),
    ("COc1cccc(-c2nn(-c3ccccc3)cc2CN(C)C(C)c2ccncn2)c1 (stereo not given)", "1 (yes)"),
    ("CCn1cc(CN2CCC(n3nccc3NC(=O)CCOc3ccccc3)CC2)cn1", "0 (no)"),
    ("Cc1ccc(Cl)cc1NC(=O)CNCC(c1ccccc1)N(C)C (stereo not given)", "0 (no)"),
    ("COc1ccc(C(CNCC(=O)Nc2ccccc2F)N(C)C)cc1 (stereo not given)", "0 (no)"),
    ("O=C(C[n+]1cc2ccccc2c2ccccc21)c1ccccc1", "1 (yes)"),
    ("CCCOc1ccc(C(=O)NC(=S)NNC(=O)c2c(-c3ccccc3)noc2C)cc1", "0 (no)"),
    ("Cc1ccn2cc(CCNC(=O)C3CC=CCC3C(=O)O)nc2c1 (stereo not given)", "0 (no)"),
    ("COc1ccc(C(CNC(=O)c2ccc(S(=O)(=O)N(C)C)cc2)N(C)C)cc1 (stereo not given)", "0 (no)"),
    ("CN(C)C(CNC(=O)c1cnc(Cl)c(Cl)c1)c1ccccc1 (stereo not given)", "0 (no)"),
    ("COc1ccc(C(CNC(=O)c2cc(SC)ccc2Cl)N(C)C)cc1 (stereo not given)", "0 (no)"),
    ("CN(C)C1(CNC(=O)CC(NC(=O)c2ccccc2Cl)c2ccccc2)CCCCC1 (stereo not given)", "1 (yes)"),
    ("Cc1ccc(S(=O)(=O)Nc2cccc(C(=O)NCC(c3ccco3)N3CCCC3)c2)cc1F (stereo not given)", "0 (no)"),
    ("CCOC(=O)C1(CCc2ccccc2)CCN(Cc2ccc(OC)cc2)CC1", "0 (no)"),
    ("CCCN(CCC)CCCNC(=O)C1CCC(CNS(=O)(=O)c2cccc3nsnc23)CC1 (stereo not given)", "0 (no)"),
]
